Read-out record for EGFR (UniProt P00533): IC50
Return type: number; implicit unit µM.

I have this compound here, COc1cccc(Nc2ncnc3cc(OC)c(OC)cc23)c1 , and I need its recorded IC50.
1

I have this compound here, COc1cc2nc(Nc3ccc(C)cc3)nc(Nc3ccc(C)cc3)c2cc1OC , and I need its recorded IC50.
3.4

====

Record form. Attribute: IC50. Fill in for each entry.

Observed IC50 on UniProtKB P00533 for Clc1ccccc1Nc1ncnc2ccccc12 , please.
> 50 µM

Observed IC50 on UniProtKB P00533 for COc1cc2ncnc(Nc3ccccc3)c2cc1OC , please.
> 50 µM

Observed IC50 on UniProtKB P00533 for Cc1ccc2ncnc(Nc3ccc4c(c3)OCO4)c2c1 , please.
21 µM

Observed IC50 on UniProtKB P00533 for COc1cc2c(Nc3cccc(Cl)c3)ncnc2c(OC)c1OC , please.
> 50 µM

Observed IC50 on UniProtKB P00533 for Cc1ccc2ncnc(Nc3cccc(Br)c3)c2c1 , please.
0.33 µM

Observed IC50 on UniProtKB P00533 for Clc1cccc(Nc2ncnc3ccccc23)c1 , please.
0.205 µM

Observed IC50 on UniProtKB P00533 for Cc1ccc2ncnc(Nc3ccccc3O)c2c1 , please.
> 50 µM

Observed IC50 on UniProtKB P00533 for Cc1cccc2c(Nc3cccc(Cl)c3)ncnc12 , please.
> 50 µM

Observed IC50 on UniProtKB P00533 for Cc1ccc2ncnc(Nc3ccccc3C)c2c1 , please.
> 50 µM

Observed IC50 on UniProtKB P00533 for Cc1ccc2ncnc(Nc3cccc(C(=O)O)c3)c2c1 , please.
> 50 µM

Observed IC50 on UniProtKB P00533 for COc1cc2nc(Cl)nc(Nc3cccc(Cl)c3)c2cc1OC , please.
20 µM

Observed IC50 on UniProtKB P00533 for Cc1ccc2ncnc(Nc3ccccc3)c2c1 , please.
> 50 µM

Observed IC50 on UniProtKB P00533 for COc1cc2ncnc(Nc3cccc(I)c3)c2cc1OC , please.
0.0017 µM

These measurements were taken from the Kinase Knowledgebase extract (Sharma et al. 2016).
